meta.source: PubChem BioAssay (NCI)

- ASSAY DETAILS: NCI Yeast Anticancer Drug Screen. Data for the cln2 rad14 strain (AID 165);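 further: 0% = growth equal to vehicle treated cultures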
- REPORTED CONDITIONS: S. cerevisiae cln2 rad14 strain, at 50.0 µM, hits give high values
This is part of a sample that, as a whole, favours compounds with a hit. Of some 79,000 tested, about 15% had one in any assay.
Give measured growth inhibition for each item. Keep answers brief.
Numbers only, in %.

COMPOUND	growth inhibition / %
CC(=O)OC1OCCCC1Cl (configuration not stated)	-3.2
CC(=O)C(N)C(C)C (configuration not stated)	7.9
C=C(CN(CC)CC)C1(c2ccccc2)CC2(CCCC2)C(=O)O1 (configuration not stated)	3.6
[O-][n+]1ccccc1Cl	-14.4
CSC1C(=O)Nc2ccccc21 (configuration not stated)	-13.1

Please state growth inhibition for every compound in the list that follows.
1. CCCC(=O)Nc1cc(C(=O)N2C[C@H]3C[C@@]34C2=CC(=O)c2[nH]cc(C)c24)n(COC)c1
2. Nc1ncnc2nc(-c3ccc(C(=O)c4cccc([N+](=O)[O-])c4)cc3)[nH]c12

1. 41.4
2. -5.4

For every record below, what is its growth inhibition?
1. CN(C)c1ccc(N=Cc2ccc3c(c2)OCO3)cc1
2. CCc1cccc(CC)c1NC(=O)c1ccccc1Br
3. O=C(Nc1ccn(C2OC(CO)C(O)C2O)c(=O)n1)Nc1ccn(C2OC(CO)C(O)C2O)c(=O)n1 (configuration not stated)
4. CC[C@H](O)[C@H](C)C=C1SCCCS1
5. O=C(Nc1ccc(Cl)cc1)Nc1nnc(-c2ccccc2Br)o1

-18.1
16.3
-35.8
25.1
-15.4
